target: NADPH oxidase 4 (Homo sapiens) (UniProt Q9NPH5); test: compounds shifting NOX4 Amplex Red fluorescence – cell-based, HEK293-NOX4, tetracycline-induced, NOX inhibitor project, primary screen (AID 1160); conditions: HEK293-NOX4, Amplex Red H2O2 fluorescence, 45 min; higher = more signal, called active from +8 up or from −8 down
Sequence (Q9NPH5 whole entry, looked up): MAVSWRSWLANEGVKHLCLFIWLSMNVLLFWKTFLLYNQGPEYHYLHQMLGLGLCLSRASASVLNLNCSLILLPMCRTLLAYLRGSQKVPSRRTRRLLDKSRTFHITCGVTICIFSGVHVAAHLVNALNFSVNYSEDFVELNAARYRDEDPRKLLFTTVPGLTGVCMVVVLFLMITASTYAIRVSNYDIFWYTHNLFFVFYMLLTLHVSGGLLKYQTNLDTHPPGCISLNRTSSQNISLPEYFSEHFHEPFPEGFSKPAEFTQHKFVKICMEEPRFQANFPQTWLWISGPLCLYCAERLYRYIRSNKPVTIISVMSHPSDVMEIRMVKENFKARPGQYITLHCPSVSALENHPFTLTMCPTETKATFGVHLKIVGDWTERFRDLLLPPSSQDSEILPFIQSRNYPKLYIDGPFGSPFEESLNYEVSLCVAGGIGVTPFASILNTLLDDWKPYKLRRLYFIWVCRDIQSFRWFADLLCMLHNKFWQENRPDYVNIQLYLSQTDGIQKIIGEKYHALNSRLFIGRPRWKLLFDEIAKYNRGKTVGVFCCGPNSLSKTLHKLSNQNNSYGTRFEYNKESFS
Assign met whenever z-score does not fall below -0.4; assign not met whenever it does.

NC(=O)NCC#Cc1ccc2c(c1)[C@]1(C(=O)N2)[C@H](c2ccccc2OCCO)N2[C@H](c3ccccc3)[C@H](c3ccccc3)OC(=O)[C@H]2[C@@H]1C(=O)NC[C@H](O)c1ccccc1	met
CCCC=C(CCC)[C@@H](NC(=O)c1cccs1)c1ccc(C(=O)OC)cc1	met
CN(C)C(=O)[C@]1(Cc2ccccc2CN=[N+]=[N-])N=C(c2ccc(OCCCO)cc2)O[C@@H]1c1ccccc1	not met

Now consider a different compound.
Say whether C=C[C@H](C)[C@H](OC(=O)Nc1ccc(SC)cc1)c1ccc(OCCO)cc1 shows z-score of -0.4 or more.
met

---

molecular target: Focal adhesion kinase 1 (Homo sapiens) (UniProt Q05397); assay: PTK2 protein binding on printed compound slides – biochemical, small-molecule microarray, 635/667 nm fluorescence, BSA, DTT, primary screen (AID 1130); details: 635 nm fluorescence, higher = more signal;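 note: composite of spot emission at 667 nm and signal to noise over triplicate slides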
Sequence (Q05397 whole entry, looked up): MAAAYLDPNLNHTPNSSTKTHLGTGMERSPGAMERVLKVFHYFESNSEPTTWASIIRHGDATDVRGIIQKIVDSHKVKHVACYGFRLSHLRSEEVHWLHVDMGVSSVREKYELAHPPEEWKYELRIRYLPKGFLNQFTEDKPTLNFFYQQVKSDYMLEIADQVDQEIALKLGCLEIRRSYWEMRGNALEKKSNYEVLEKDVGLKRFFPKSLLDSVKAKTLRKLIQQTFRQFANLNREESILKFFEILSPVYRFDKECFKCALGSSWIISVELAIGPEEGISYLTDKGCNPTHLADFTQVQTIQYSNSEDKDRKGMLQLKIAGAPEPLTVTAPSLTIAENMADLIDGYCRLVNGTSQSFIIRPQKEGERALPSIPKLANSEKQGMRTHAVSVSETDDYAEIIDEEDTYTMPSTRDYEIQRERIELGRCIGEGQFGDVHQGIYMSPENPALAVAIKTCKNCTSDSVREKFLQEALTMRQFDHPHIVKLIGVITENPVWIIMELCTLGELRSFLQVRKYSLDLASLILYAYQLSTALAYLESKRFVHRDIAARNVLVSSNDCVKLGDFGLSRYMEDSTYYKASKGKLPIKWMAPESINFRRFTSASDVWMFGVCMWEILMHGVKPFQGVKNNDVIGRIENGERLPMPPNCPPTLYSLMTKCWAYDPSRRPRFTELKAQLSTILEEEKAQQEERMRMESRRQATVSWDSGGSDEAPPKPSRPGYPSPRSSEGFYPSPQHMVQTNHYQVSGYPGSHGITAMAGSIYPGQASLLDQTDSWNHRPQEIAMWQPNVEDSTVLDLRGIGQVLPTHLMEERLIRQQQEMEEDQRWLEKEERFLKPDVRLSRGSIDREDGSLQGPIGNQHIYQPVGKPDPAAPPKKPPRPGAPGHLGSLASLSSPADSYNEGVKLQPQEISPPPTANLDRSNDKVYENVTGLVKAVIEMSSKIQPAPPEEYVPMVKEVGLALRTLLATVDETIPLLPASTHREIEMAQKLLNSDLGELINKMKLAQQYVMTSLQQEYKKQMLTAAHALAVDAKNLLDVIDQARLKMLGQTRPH
Observation type: composite z-score
// return just the number, without any unit appended

Use the examples below as a reference point.
[N-]=[N+]=Nc1ccccc1C[C@@]1(C(=O)N2CCOCC2)N=C(c2ccc(OCCCO)cc2)O[C@@H]1c1ccccc1	0.625
CCCC=C(CCC)[C@@H](NC(=O)c1cccs1)c1ccc(C(=O)OC)cc1	0.205
O=C1[C@H]2C=C(I)[C@H](C[C@@H]2OCCOCCO)[C@@]12CO2	0.0017

Record request: composite z-score value, item CCCCC[C@H]1OC[C@@]23C=C(Br)[C@@H](CC12)[C@@]1(CO1)C3=O (some centres undefined)
0.215

Record request: composite z-score value, item CCCCNC(=O)c1ccc(C#CC(C)(C)C)c(OC(C)=O)c1
0.797

Record request: composite z-score value, item CC1CC/C=C\[C@H]2OC34C=CCN(Cc5ccccc5)C(=O)[C@H]3N(C(CO)C(C)C)C(=O)[C@@H]4C2C(=O)O1 (some centres undefined)
-0.475

Record request: composite z-score value, item COC(=O)[C@@]1(Cc2ccc(OC)cc2)[C@H]2c3cc(C(=O)N(C)C)n(Cc4ccc(OC(F)(F)F)cc4)c3C[C@H]2CN1C(=O)c1ccccc1
1.14

Record request: composite z-score value, item CCCCC=C[C@@H](NC(=O)OCc1ccccc1Cl)c1ccccc1
0.128

---

The compounds listed here are annotated with their composite z-score.
assay: probe aShh binding to arrayed compounds – biochemical, biotinylated probe, 635/667 nm fluorescence, primary screen (AID 1114); conditions: small-molecule microarray, higher = more signal;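 note: probe is biotin-labelled aShh protein from a stem cell growth factor screen; measures binding of labelled protein to compounds printed on the slide; score merges feature fluorescence at 667 nm with signal-to-noise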
// return just the number, without any unit appended

Use the examples below as a reference point.
COc1ccc([Si](C)(C)[C@@H]2[C@@H](CC(=O)N3CCC[C@H]3CO)O[C@]3(C(=O)N(Cc4cccc(N5C(=O)COc6ccccc65)c4)c4ccccc43)[C@H]2C)cc1	0.131
CC1CC/C=C\[C@H]2OC34C=CCN(c5ccc6ccccc6c5)C(=O)[C@H]3N(CCCO)C(=O)[C@@H]4C2C(=O)O1 (stereo partly drawn)	-0.291
CC1=C2[C@@H](CCc3ccccc3)OB(O)C[C@@H]2[C@@H]2C(=O)N(C)C(=O)[C@@H]2C1	0.0469
C=C[C@H]1C(C(=O)OCC)=CC[C@@H](c2ccccc2)N1S(=O)(=O)c1ccc(C)cc1	-0.181
COc1cc2c(cc1O)C(c1ccc(CN3CCCC3)cc1)N(Cc1cc3c(cc1Br)OCO3)CC2 (stereo not drawn)	-0.2

Record request: composite z-score value, item C=CCN1C(=O)[C@]2(CCC(=O)OC(C)(C)C)N=C(c3ccc(OCCCO)cc3)O[C@@H]2c2ccccc21
0.131

Record request: composite z-score value, item CCCC=C(CCC)[C@@H](NC(=O)C(C)(C)C)c1ccc(C(=O)OC)cc1
0.572

Record request: composite z-score value, item COCCOC(=O)N1C(=O)[C@@]2(c3cc(C#CCNC(N)=O)ccc31)[C@H](C(N)=O)[C@H]1C(=O)O[C@H](c3ccccc3)[C@H](c3ccccc3)N1[C@@H]2c1ccccc1OCCO
-0.0977
